# reported IC50; entries follow
- System: parental wild-type Ba/F3 cells
- Assay method text: Ba/F3 (WT) cell proliferation assay (Alamar Blue)
- Format: cell-based
- Condition parameters: Mus musculus, BaF3, 72 h, read-out: BaF3 WT prolif (μM)
Structures can show the parent of a compound that is named as a salt.
Write the answer as a number in µM, unit excluded.

Compound	IC50 [µM]
O=C(NCC(F)(F)F)Nc1cccc(-c2cnc3cc(-c4cnn(C5CCOC5)c4)ccn23)c1 (centres unmarked) [Example 47, hydrochloride]	0.68

Summary for this compound, Cc1ccnc(-c2ccn3c(-c4cccc(NC(=O)NCC(F)(F)F)c4)cnc3c2)n1 [Example 59, hydrochloride] : IC50 is 5.1

Summary for this compound, O=C(NCC(F)(F)F)Nc1cccc(-c2cnc3cc(-c4nnc(CCN5CCCCC5)s4)ccn23)c1 [Example 22, hydrochloride] : IC50 is 1.1

Summary for this compound, O=C(NCC(F)(F)F)Nc1cccc(-c2cnc3cc(-c4ccc(NC5CCOCC5)nn4)ccn23)c1 [Example 66, bis-hydrochloride] : IC50 is 1.9

Summary for this compound, CN(C)c1ccc(-c2ccn3c(-c4cccc(NC(=O)NCC(F)(F)F)c4)cnc3c2)nn1 [Example 113, formate] : IC50 is 1.4

Summary for this compound, O=C(NCC(F)(F)F)Nc1cccc(-c2cnc3cc(-c4ccc(N5CCCCC5)nc4)ccn23)c1 [Example 49, hydrochloride] : IC50 is 0.29

Summary for this compound, O=C(NCC(F)(F)F)Nc1cccc(-c2cnc3cc(-c4cnn(C5CCCNC5)c4)ccn23)c1 (centres unmarked) [Example 40, formate] : IC50 is 4

Summary for this compound, CN1CCN(c2ncc(-c3ccn4c(-c5cccc(NC(=O)NCC(F)(F)F)c5)cnc4c3)cn2)CC1 [Example 79, bis-formate] : IC50 is 0.4
